PROCEDURE_SUMMARY: chemical genetic growth profiling, strain panel (AID 1159580);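 note: tested at 20 µM; growth read once vehicle control cultures reached saturation at 30 °C; 1 = growth at the plate median or of vehicle wells; lower values mean less growth of the strain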
MEASUREMENT_SETUP: S. cerevisiae deletion strains, growth OD, locus YDL192W, strain arf1, active compounds read low
The whole screen tested about 5,500 compounds, of which about 2,000 (36%) were called active. About 18% were inconclusive and are not listed. This is one part of the list.

COMPOUND | normalized growth
C=CCCCCCCCCCCCC(O)CC(O)CO (stereo not drawn) (tested in a mixture with another compound) | 0.231
CC(=O)Oc1cc(OC(C)=O)c2c(=O)c(-c3ccccc3)coc2c1 | 0.993
CC[N+]1(C)CCCC(OC(=O)C(O)(c2ccccc2)c2ccccc2)C1 (stereo not drawn) | 1.02
C=C1C2CC[C@@]3(C)[C@H](c4ccoc4)OC(=O)C[C@]13O[C@H]1CC(=O)C(C)(C)[C@H](C(O)C(=O)OC)[C@@]21C (stereo partly drawn) | 1.01
COc1ccc(-c2coc3cc(OC)cc(O)c3c2=O)cc1 | 0.96
NCC(=O)CCC(=O)O | 0.992
COc1ccc(-c2cc(=O)c3cc(OC)ccc3o2)cc1 | 0.978
O=C1c2c(O)ccc(O)c2C(=O)c2c(NCCNCCO)ccc(NCCNCCO)c21 | 0.889
C=CCCCCCCCCCCCC(O)CC(O)CO (stereo not drawn) | 0.921
CCCN1C[C@H](CSC)C[C@@H]2c3cccc4[nH]cc(c34)C[C@H]21 | 1.02
CCC1C2CC3C4N(C)c5ccccc5C45CC(C2C5OC(C)=O)N3C1OC(C)=O (stereo not drawn) | 1.01
NS(=O)(=O)c1cc2c(cc1C(F)(F)F)NCNS2(=O)=O | 0.993
O=C(/C=C/c1ccccc1)c1ccc(O)cc1 | 0.726

---

PROCEDURE_SUMMARY: chemical genetic growth profiling, strain panel (AID 1159580)
MEASUREMENT_SETUP: S. cerevisiae deletion strains, growth OD, locus YOR329C, strain SCD5, active compounds read low
Screen size: about 5,500 compounds; about 2,000 (36%) were called active. Another 18% or so got no clear call; they are omitted. The list shows a part of the results.
Measured normalized growth values are reported for all entries that follow.

MOLECULE | normalized growth
CC(C)c1ccc(-c2cc(=O)c3ccccc3o2)cc1 | 0.939
CC(C)(C)c1csc(NNC(=O)c2ccc(Cl)cc2)n1 | 0.97
Cc1cc(C(=O)N(c2ccccc2)C(C)C2CC2)c(Cl)cc1Cl (stereo unspecified) | 0.984
Clc1ccccc1N/N=C\Cc1nnnn1-c1ccccc1 | 0.971
CC(C)(C)c1csc(NC(=O)c2ccc(Cl)cc2Cl)n1 | 0.975
N#CCCCCOc1ccc2c(=O)cc(-c3ccccc3)oc2c1 | 0.984
N=c1ccc2nc3c(Cl)c4c(c(Cl)c3oc-2c1S(=O)(=O)O)Nc1ccc(N)c(S(=O)(=O)O)c1O4 | 1.01
Fc1ccc(N/N=C\Cc2nnnn2-c2ccccc2)c(F)c1 | 0.964
CCC(C)Cn1c(Sc2ncc([N+](=O)[O-])s2)n[nH]c1=O (stereo unspecified) | 0.908
CCn1nc(C)cc1-c1nnc(Sc2ncc([N+](=O)[O-])s2)n1C | 0.975
Cc1ccc2c(c1)CCCN2CC(=O)N(c1ccccc1)C1CCCCC1 | 0.995

---

Measured normalized growth values are reported for all entries that follow.
PROCEDURE_SUMMARY: chemical genetic growth profiling, strain panel (AID 1159580)
MEASUREMENT_SETUP: S. cerevisiae deletion strains, growth OD, locus YNL298W, strain CLA4, active compounds read low
Among all 5,500 compounds or so, about 2,000 (36%) were called active. Not shown: some 18% with an inconclusive outcome. The list shows a part of the results.

COMPOUND | normalized growth
CC(=O)O[C@H]1C[C@@]2(C)[C@H](c3ccoc3)OC(=O)[C@H]3O[C@]32[C@@]2(C)C1[C@]1(C)C(C[C@H]2OC(C)=O)C(C)(C)[C@H](OC(C)=O)C[C@@H]1OC(C)=O (stereo not given in full) | 0.968
CC(=O)O[C@@H]1CC2C(C)(C)[C@H](O)C[C@H](O)[C@]2(C)C2CC[C@@]3(C)[C@H](c4ccoc4)OC(=O)[C@H]4O[C@]43[C@@]21C (stereo not given in full) | 0.982
O=c1c(-c2ccc(O)cc2)coc2cc(O)cc(O)c12 | 1.04
CC(=O)O[C@@H]1CC2C(C)(C)CCC(=O)[C@]2(C)C2CC[C@@]3(C)[C@H](c4ccoc4)OC(=O)C4OC43[C@@]21C (stereo not given in full) | 0.996
CCCCCCCCCCCCCCCC[n+]1ccccc1 | 0.0577
COc1ccc(-c2coc3cc(OC)cc(O)c3c2=O)cc1 | 0.928
Cc1coc2ccccc2c1=O | 1.02
OC1C(O)C(O)C(O)C(O)C1O (stereo not given) | 0.991
O=c1c2ccccc2[se]n1-c1ccccc1 | 0.0625
CC(=O)N(O)CCCCCNC(=O)CCC(=O)N(O)CCCCCNC(=O)CCC(=O)N(O)CCCCCN | 1

---

PROCEDURE_SUMMARY: chemical genetic growth profiling, strain panel (AID 1159580);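 note: tested at 20 µM; growth read once vehicle control cultures reached saturation at 30 °C; 1 = growth at the plate median or of vehicle wells; lower values mean less growth of the strain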
MEASUREMENT_SETUP: S. cerevisiae deletion strains, growth OD, locus YNL322C, strain KRE1, active compounds read low
About 2,000 (36%) of roughly 5,500 compounds were called active. Not shown: some 18% with an inconclusive outcome. The list shows a part of the results.
Consider the cut-off 0.8. If the recorded normalized growth is strictly smaller, the label is true; if not, the label is false.

SAMPLE_SMILES | CAT
COc1ccc(-c2coc3cc(O)cc(O)c3c2=O)cc1 | true
COc1ccc(-c2cc(=O)c3c(OC)cccc3o2)cc1 | false
CC(=O)Oc1cc(-c2coc3cc(OC(C)=O)c(OC(C)=O)c(OC(C)=O)c3c2=O)cc(OC(C)=O)c1OC(C)=O | true
CC(C)[C@]12O[C@H]1[C@@H]1O[C@@]13[C@@]1(C)CCC4=C(COC4=O)[C@@H]1C[C@@H]1O[C@@]13C2=O | false

---

PROCEDURE_SUMMARY: chemical genetic growth profiling, strain panel (AID 1159580);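 note: tested at 20 µM; growth read once vehicle control cultures reached saturation at 30 °C; 1 = growth at the plate median or of vehicle wells; lower values mean less growth of the strain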
MEASUREMENT_SETUP: S. cerevisiae deletion strains, growth OD, locus YLR039C, strain RIC1, active compounds read low
In all, about 5,500 compounds went through this assay and about 2,000 (36%) were called active. Inconclusive results (about 18%) are left out. The list shows a part of the results.
Measured normalized growth values are reported for all entries that follow.

MOLECULE | normalized growth
Nc1nc(N)c2nc(-c3ccccc3)c(N)nc2n1 | 1.04
COc1cc([C@@H]2c3cc4c(cc3[C@H](O)[C@H]3COC(=O)[C@@H]23)OCO4)cc(OC)c1OC | 0.996
CC(=O)c1csc(-c2ccc(C(F)(F)F)cc2)n1 | 0.882
NCCc1cccc(O)c1 | 0.972
CCCCCCCCCCc1ccc(-c2ccccc2)cc1 | 0.992
NCCc1ccc(O)c(O)c1 | 0.99
Clc1ccc(Cl)cc1 | 1.04
CCOC(=O)CSc1nnc(-c2cc(C(C)(C)C)nn2Cc2cccc(C)c2)n1C1CCCCC1 | 0.909
C#CCOS(=O)OC1CCCCC1Oc1ccc(C(C)(C)C)cc1 (stereo not drawn) | 1.04
NCCc1ccc(O)cc1 | 1.02
CC1(C)CC(=O)c2c(S(C)(=O)=O)sc(Br)c2C1 | 0.91
O=c1c(-c2ccccc2)coc2cc(O)cc(O)c12 | 0.506
COc1cc(O)c2c(=O)c(-c3ccc(O)cc3)coc2c1 | 0.58

---

PROCEDURE_SUMMARY: chemical genetic growth profiling, strain panel (AID 1159580);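 note: tested at 20 µM; growth read once vehicle control cultures reached saturation at 30 °C; 1 = growth at the plate median or of vehicle wells; lower values mean less growth of the strain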
MEASUREMENT_SETUP: S. cerevisiae deletion strains, growth OD, locus YPL256C, strain CLN2, active compounds read low
Screen size: about 5,500 compounds; about 2,000 (36%) were called active. Another 18% or so got no clear call; they are omitted. This is one part of the list.
Measured normalized growth values are reported for all entries that follow.
MEASURED_QUANTITY: normalized growth

COMPOUND | MEASURED_QUANTITY | TEST_RESULT
CC(C)(O)[C@@H]1CC[C@](C)([C@H]2[C@@H](O)C[C@@]3(C)C4C[C@H](O[C@@H]5O[C@H](CO)[C@@H](O)[C@H](O)[C@H]5O)C5C(C)(C)[C@@H](O[C@@H]6OC[C@@H](O)[C@H](O)[C@H]6O)CC[C@@]56C[C@@]46CC[C@]23C)O1 (some centres undefined) | normalized growth | 0.974
[N-]=[N+]=CC(=O)OCC(N)C(=O)O (centres undefined) | normalized growth | 1
C=C1C2CC[C@@]3(C)[C@H](c4ccoc4)OC(=O)C[C@]13O[C@H]1CC(=O)C(C)(C)[C@H](C(O)C(=O)OC)[C@@]21C (some centres undefined) | normalized growth | 0.981
COc1ccc(C2CC(c3ccccc3)=Nc3ccccc3S2)cc1OC (centres undefined) | normalized growth | 0.879

Where do these numbers come from? They come from PubChem BioAssay AID1159580.
